- MEASURED ON: α4β7 (adhesion of RPMI cells to CS-1) (Homo sapiens, UniProt P13612+P26010)
- Construct: endogenous in cells
- Sequence (P13612 34-1032): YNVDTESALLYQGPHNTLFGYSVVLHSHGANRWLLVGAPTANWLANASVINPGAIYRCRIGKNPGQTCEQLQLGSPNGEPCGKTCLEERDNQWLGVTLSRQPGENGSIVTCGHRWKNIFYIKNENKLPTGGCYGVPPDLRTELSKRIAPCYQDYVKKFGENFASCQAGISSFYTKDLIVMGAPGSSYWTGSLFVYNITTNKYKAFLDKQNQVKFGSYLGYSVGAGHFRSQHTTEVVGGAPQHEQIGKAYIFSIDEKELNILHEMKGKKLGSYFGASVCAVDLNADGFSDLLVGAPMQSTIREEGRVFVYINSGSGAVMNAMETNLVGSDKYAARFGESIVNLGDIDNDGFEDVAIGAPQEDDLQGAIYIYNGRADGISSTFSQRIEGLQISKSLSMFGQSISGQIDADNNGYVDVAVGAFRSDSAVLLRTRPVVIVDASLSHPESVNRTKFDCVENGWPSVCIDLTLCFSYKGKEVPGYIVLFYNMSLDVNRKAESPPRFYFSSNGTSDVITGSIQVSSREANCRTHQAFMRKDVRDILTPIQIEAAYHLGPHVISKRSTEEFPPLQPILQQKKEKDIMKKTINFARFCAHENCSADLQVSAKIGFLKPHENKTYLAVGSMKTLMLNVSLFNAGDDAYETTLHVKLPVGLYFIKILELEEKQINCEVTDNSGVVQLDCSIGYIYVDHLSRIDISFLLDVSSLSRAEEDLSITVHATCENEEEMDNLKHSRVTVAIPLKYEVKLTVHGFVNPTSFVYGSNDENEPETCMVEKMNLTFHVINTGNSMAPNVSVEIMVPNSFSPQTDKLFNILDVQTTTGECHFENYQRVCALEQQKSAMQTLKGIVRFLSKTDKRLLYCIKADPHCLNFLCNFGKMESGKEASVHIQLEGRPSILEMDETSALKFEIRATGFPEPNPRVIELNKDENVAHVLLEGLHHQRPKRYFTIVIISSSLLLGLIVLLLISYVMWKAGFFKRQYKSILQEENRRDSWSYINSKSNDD
- Sequence (P26010 20-798): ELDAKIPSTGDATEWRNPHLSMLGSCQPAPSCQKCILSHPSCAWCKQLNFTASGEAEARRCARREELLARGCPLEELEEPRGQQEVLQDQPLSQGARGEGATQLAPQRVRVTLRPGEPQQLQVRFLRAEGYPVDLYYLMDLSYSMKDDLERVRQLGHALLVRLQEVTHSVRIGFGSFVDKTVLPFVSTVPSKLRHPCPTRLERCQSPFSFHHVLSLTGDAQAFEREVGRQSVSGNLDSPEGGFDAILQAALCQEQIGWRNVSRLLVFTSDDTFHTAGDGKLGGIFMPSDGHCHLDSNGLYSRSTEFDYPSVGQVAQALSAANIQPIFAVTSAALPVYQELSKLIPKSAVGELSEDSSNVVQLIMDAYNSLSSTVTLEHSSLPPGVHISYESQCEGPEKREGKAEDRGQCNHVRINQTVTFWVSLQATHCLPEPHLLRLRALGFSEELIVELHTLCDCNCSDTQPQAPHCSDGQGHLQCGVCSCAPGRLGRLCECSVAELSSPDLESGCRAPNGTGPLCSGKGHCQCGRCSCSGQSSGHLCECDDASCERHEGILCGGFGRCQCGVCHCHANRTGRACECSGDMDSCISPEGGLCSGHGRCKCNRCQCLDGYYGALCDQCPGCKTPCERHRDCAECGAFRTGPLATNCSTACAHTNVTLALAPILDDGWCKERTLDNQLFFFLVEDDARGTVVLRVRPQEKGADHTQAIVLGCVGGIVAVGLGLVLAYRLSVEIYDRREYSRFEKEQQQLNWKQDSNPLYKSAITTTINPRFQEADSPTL
- TEST SUMMARY: RPMI-CS-1 cell adhesion assay
- MEASUREMENT SETUP: adhesion of RPMI B-cell line (expresses α4β7) to CS-1 peptide coated microwells; read-out: RPMI-CS-1 IC50 value range
pIC50: −log10 of the molar value.
Would you kindly list pIC50 for each of these compounds?

Required: pIC50, one value per compound below.
1. COc1ccccc1-c1ccc(C[C@H](NC(=O)c2ccc(NS(=O)(=O)c3ccccc3)cc2Cl)C(=O)O)cc1 [Example 68]
2. COCOc1ccc2c(c1-c1ccc(C[C@H](NC(=O)c3c(Cl)cccc3Cl)C(=O)O)cc1)OCO2 [Example 235]
3. COc1cccc(OC)c1-c1ccc(C[C@H](NC(=O)c2c(Cl)cc(-c3nccs3)cc2Cl)C(=O)O)cc1 [Example 306]
4. C[S+]([O-])c1ccccc1-c1ccc(C[C@H](NC(=O)c2c(Cl)cccc2Cl)C(=O)O)cc1 (single isomer, unassigned) [Example 152C]
5. COc1ccccc1-c1ccc(C[C@H](NC(=O)c2c(Cl)cccc2Cl)C(=O)O)cc1Cl [Example 336]
6. COc1ccccc1-c1ccc(C[C@H](NC(=O)c2cc(NS(=O)(=O)C(F)(F)F)ccc2Cl)C(=O)O)cc1 [Example 180]
7. CC(=O)Nc1ccccc1-c1ccc(C[C@H](NC(=O)c2c(Cl)cccc2Cl)C(=O)O)cc1 [Example 25]
8. COc1cc(C#N)c(-c2ccc(C[C@H](NC(=O)c3c(Cl)cccc3Cl)C(=O)O)cc2)c(OC)c1 [Example 142]

Output:
1: > 6.52; 2: > 6.52; 3: > 6.52; 4: 6.00 to 6.52; 5: > 6.52; 6: > 6.52; 7: 6.00 to 6.52; 8: > 6.52
